Biological target: Glutamate receptor ionotropic, AMPA (Rattus norvegicus, UniProt P19490+P19491+P19492+P19493)
Experiment: In vitro binding assay for the displacement of [3H]AMPA from AMPA receptor
A collection of compounds and their measured IC50

Study these solved cases before continuing.
# smiles code, IC50
data = [
    ("Cc1ccc(C(=O)NCc2cc(Br)cc3nc(O)c(O)nc23)cn1", "~10 µM"),
    ("Cc1ccsc1C(=O)NCc1cc(Br)cc2nc(O)c(O)nc12", "~10 µM"),
    ("COc1ccc(CC(=O)NCc2cc(Br)cc3[nH]c(=O)c(=O)[nH]c23)cc1OC", "> 10 µM"),
    ("O=C(Cc1ccc2c(c1)OCO2)NCc1cc(Br)cc2[nH]c(=O)c(=O)[nH]c12", "> 10 µM"),
    ("O=C(NCc1cc(Br)cc2nc(O)c(O)nc12)c1cc(C(F)(F)F)cc(C(F)(F)F)c1", "> 10 µM"),
]

// next entry
Request: Entry O=C(Cc1ccccc1)NCc1cccc2[nH]c(=O)c(=O)[nH]c12 has what IC50?
Response: > 10 µM
